Test system: Rattus norvegicus
experiment_description: Antiparkinsonian activity in 6-hydroxydopamine lesioned Wistar rat assessed as AUC activity by measuring contralateral rotations at 63.4 umol/kg, po measured every 10 mins for 240 mins relative to L-DOPA
Assay type: functional
Square brackets hold non-standard residues; d marks the D form. Peptide text beside a SMILES is read from it. * marks the point of attachment. Dopa = N[C@@H](Cc1ccc(O)c(O)c1)C(=O)O; Cha = N[C@@H](CC1CCCCC1)C(=O)O; Ac6c = NC1(C(=O)O)CCCCC1; Aib = CC(C)(N)C(=O)O; OcHex = C1CCC(O*)CC1; OBn = c1ccc(CO*)cc1; OiPr = CC(C)O*
// Activity lookup, one value per entry
// note: answer is a bare numeric in %

Some compounds with known Activity results, for comparison:
compound | measurement_unit | Activity
CC(=O)Oc1ccc(C[C@H](NC(=O)C(C)(C)N)C(=O)O)cc1OC(C)=O.Cl | % | 42
COC(=O)[C@H](Cc1ccc(O)c(O)c1)NC(=O)C1(N)CCCCC1.Cl (H-[Ac6c]-[Dopa]-OMe) | % | 88
CC(C)(N)C(=O)N[C@@H](Cc1ccc(O)c(O)c1)C(=O)OCc1ccccc1.Cl (H-[Aib]-[Dopa]-OBn) | % | 46
CC(C)OC(=O)[C@H](Cc1ccc(O)c(O)c1)NC(=O)C(C)(C)N.Cl (H-[Aib]-[Dopa]-OiPr) | % | 116
COC(=O)[C@H](Cc1ccc(OC(C)=O)c(OC(C)=O)c1)NC(=O)C1(N)CCCC1.Cl | % | 39
CC(C)(N)C(=O)N[C@@H](Cc1ccc(O)c(O)c1)C(=O)OC1CCCCC1.Cl (H-[Aib]-[Dopa]-OcHex) | % | 105

Supply reported Activity belonging to this compound: COC(=O)[C@H](Cc1ccc(OC(C)=O)c(OC(C)=O)c1)NC(=O)C(C)(C)N.Cl
55

Supply reported Activity belonging to this compound: COC(=O)[C@H](Cc1ccc(O)c(O)c1)NC(=O)[C@@H](N)CC1CCCCC1.Cl (H-[Cha]-[Dopa]-OMe)
40

* * *

Test system: Rattus norvegicus
experiment_description: Antiparkinsonian activity in 6-hydroxydopamine lesioned Wistar rat assessed as AUC activity by measuring contralateral rotations at 63.4 umol/kg, po measured every 10 mins for 240 mins relative to L-DOPA
Type: functional
Square brackets hold non-standard residues; d marks the D form. Peptide text beside a SMILES is read from it. Dopa = N[C@@H](Cc1ccc(O)c(O)c1)C(=O)O; αMeF = C[C@](N)(Cc1ccccc1)C(=O)O; Ac5c = NC1(C(=O)O)CCCC1; Aib = CC(C)(N)C(=O)O
// Activity lookup, one value per entry

molecule | assayed_target | Activity
COC(=O)[C@H](Cc1ccc(OC(C)=O)c(OC(C)=O)c1)NC(=O)C1(N)CCCCC1.Cl | Rattus norvegicus | 42%

Supply reported Activity belonging to this molecule: COC(=O)[C@H](Cc1ccc(O)c(O)c1)NC(=O)C1(N)CCCC1.Cl (H-[Ac5c]-[Dopa]-OMe)
78%

Supply reported Activity belonging to this molecule: CC(C)CCOC(=O)[C@H](Cc1ccc(O)c(O)c1)NC(=O)C(C)(C)N.Cl
79%

Supply reported Activity belonging to this molecule: CC(C)(N)C(=O)N[C@@H](Cc1ccc(O)c(O)c1)C(=O)O.Cl (H-[Aib]-[Dopa]-OH)
65%

Supply reported Activity belonging to this molecule: C[C@](N)(Cc1ccccc1)C(=O)N[C@@H](Cc1ccc(O)c(O)c1)C(=O)O.Cl (H-[αMeF]-[Dopa]-OH)
26%
